- TEST_DESCRIPTION: cytotoxicity in HPDE-C7 cells, cell-based, fluorescence, HTS (AID 430);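 further: cells exposed to compound for 48 hours before viability readout; 0% = vehicle and 100% = reference cytotoxic drug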
- TEST_CONDITIONS: HPDE-C7 pancreatic duct cells viability, at 10 µM, active compounds read high
Hit rate of the full screen: of about 63,000 compounds, about 1,100 (1.7%) were called active. This excerpt belongs to a sample that is enriched for actives. Results with a measured potency or affinity are listed apart.
Each entry below carries its recorded cytotoxicity.
ASSAY_READOUT: cytotoxicity (%)

COMPOUND_STRUCTURE: CC(=NCC1CCNCC1)C1=C(O)CC(C)(C)CC1=O
REPORTED_MEASUREMENT: -8.1
//
COMPOUND_STRUCTURE: COc1ccccc1C(=O)Oc1cc(N)n(S(=O)(=O)c2ccc(C)cc2)n1
REPORTED_MEASUREMENT: -1.2
//
COMPOUND_STRUCTURE: CCN(CC)C(=O)CSc1ncnc2c1nnn2-c1ccc(OC)cc1
REPORTED_MEASUREMENT: -17.1

---

Each entry below carries its recorded cytotoxicity.
- TEST_DESCRIPTION: cytotoxicity in HPDE-C7 cells, cell-based, fluorescence, HTS (AID 430);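 further: cells exposed to compound for 48 hours before viability readout; 0% = vehicle and 100% = reference cytotoxic drug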
- TEST_CONDITIONS: HPDE-C7 pancreatic duct cells viability, at 10 µM, active compounds read high
Among all 63,000 compounds or so, about 1,100 (1.7%) were called active. Many of the other results were omitted from the sample, so actives are more common in it than they were. Potency and affinity values are given separately.
ASSAY_READOUT: cytotoxicity

COMPOUND: CCCCCC(=O)Nc1ccc2oc(-c3cncc(Br)c3)nc2c1
ASSAY_READOUT: cytotoxicity
REPORTED_MEASUREMENT: -3.1% (inactive)
--
COMPOUND: CCOc1ccc(C2C(C(=O)c3ccco3)=C(O)C(=O)N2Cc2cccnc2)cc1OC (stereo unspecified)
ASSAY_READOUT: cytotoxicity
REPORTED_MEASUREMENT: 7.1% (inactive)
--
COMPOUND: Nc1ccc(-c2cc(N)n(-c3ccccc3)n2)cc1
ASSAY_READOUT: cytotoxicity
REPORTED_MEASUREMENT: 14.8% (inactive)
--
COMPOUND: CCOC(=O)c1c(C)noc1CP(=O)(c1ccccc1)c1ccccc1
ASSAY_READOUT: cytotoxicity
REPORTED_MEASUREMENT: 4.8% (inactive)
--
COMPOUND: CCOc1ccc2noc3c2c1C(=O)c1ccccc1-3
ASSAY_READOUT: cytotoxicity
REPORTED_MEASUREMENT: 29.3% (inactive)
--
COMPOUND: C(=C\CSc1nnnn1-c1ccccc1)/CSc1nnnn1-c1ccccc1
ASSAY_READOUT: cytotoxicity
REPORTED_MEASUREMENT: -4.4% (inactive)
--
COMPOUND: COc1ccc(CCNc2nnc(Sc3nnnn3-c3ccccc3)s2)cc1OC
ASSAY_READOUT: cytotoxicity
REPORTED_MEASUREMENT: 53.9% (active)
--
COMPOUND: CCCN1Cc2cccc(C(N)=O)c2C1=O
ASSAY_READOUT: cytotoxicity
REPORTED_MEASUREMENT: -14.7% (inactive)
--
COMPOUND: COc1ccccc1OCc1nc(C#N)c(NCc2ccco2)o1
ASSAY_READOUT: cytotoxicity
REPORTED_MEASUREMENT: 3.4% (inactive)
--
COMPOUND: CC(=O)OCCNc1cc(N2CCN(C)CC2)c2noc3c2c1C(=O)c1ccccc1-3
ASSAY_READOUT: cytotoxicity
REPORTED_MEASUREMENT: 7.3% (inactive)
--
COMPOUND: CCC(=O)Nc1nnc(-c2ccco2)o1
ASSAY_READOUT: cytotoxicity
REPORTED_MEASUREMENT: -23.7% (inactive)
--
COMPOUND: CC1(C)Cc2c(c(N3CCOCC3)nc3sc(C(=O)N4CCCCC4)c(N)c23)CO1
ASSAY_READOUT: cytotoxicity
REPORTED_MEASUREMENT: -5.3% (inactive)
--
COMPOUND: N#Cc1nc(-c2ccc(F)cc2)oc1N1CCCC1
ASSAY_READOUT: cytotoxicity
REPORTED_MEASUREMENT: -7.6% (inactive)
--
COMPOUND: Cc1nc2c(c(=O)n1CCC1=CCCCC1)c1nc3ccccc3nc1n2/N=C/c1ccco1
ASSAY_READOUT: cytotoxicity
REPORTED_MEASUREMENT: 63.7% (active)
--
COMPOUND: COC(=O)CSc1nc2ccc(NC(C)=O)cc2s1
ASSAY_READOUT: cytotoxicity
REPORTED_MEASUREMENT: -5.9% (inactive)
--
COMPOUND: c1coc(-c2nnc(NC3=NCCC3)o2)c1
ASSAY_READOUT: cytotoxicity
REPORTED_MEASUREMENT: 7.5% (inactive)
--
COMPOUND: O=C1c2oc3ccccc3c(=O)c2C(c2cccc(O)c2)N1CCCN1CCOCC1 (stereo unspecified)
ASSAY_READOUT: cytotoxicity
REPORTED_MEASUREMENT: -13.7% (inactive)
--
COMPOUND: COc1ccccc1C(=O)Nc1nc2ccc(S(C)(=O)=O)cc2s1
ASSAY_READOUT: cytotoxicity
REPORTED_MEASUREMENT: 2.7% (inactive)
--
COMPOUND: Cc1csc(NC(=O)c2sc3nc(-c4cccs4)ccc3c2N)n1
ASSAY_READOUT: cytotoxicity
REPORTED_MEASUREMENT: 60.5% (active)
--
COMPOUND: Cc1ccc(C)c(Oc2nnnn2-c2ccccc2)c1
ASSAY_READOUT: cytotoxicity
REPORTED_MEASUREMENT: -0.9% (inactive)
--
COMPOUND: CC1(C)Cc2c(c(N3CCOCC3)nc3snc(Br)c23)CO1
ASSAY_READOUT: cytotoxicity
REPORTED_MEASUREMENT: 5.4% (inactive)
--
COMPOUND: O=C(c1ccc(F)cc1)c1ccc(N2CCCC2)cc1
ASSAY_READOUT: cytotoxicity
REPORTED_MEASUREMENT: -17.7% (inactive)
--
COMPOUND: COc1ccc(-n2nnnc2SCC(=O)NCCc2ccc(OC)c(OC)c2)cc1
ASSAY_READOUT: cytotoxicity
REPORTED_MEASUREMENT: -0.4% (inactive)
--
COMPOUND: CCOC(=O)c1ccc2c(c1)nc(SC/C(O)=C(\C#N)c1nc3ccccc3[nH]1)n2CC
ASSAY_READOUT: cytotoxicity
REPORTED_MEASUREMENT: 16.2% (inactive)
--
COMPOUND: O=C(O)CCCNc1cc(N2CCC3(CC2)OCCO3)c2noc3c2c1C(=O)c1ccccc1-3
ASSAY_READOUT: cytotoxicity
REPORTED_MEASUREMENT: 34.7% (inactive)
--
COMPOUND: Fc1cccc2sc(Nc3nnc(-c4ccccc4)o3)nc12
ASSAY_READOUT: cytotoxicity
REPORTED_MEASUREMENT: 53.3% (active)
